Listing: IC50 of selected compounds
Target: human renin (Homo sapiens, UniProt P00797)
Sequence (P00797 67-406): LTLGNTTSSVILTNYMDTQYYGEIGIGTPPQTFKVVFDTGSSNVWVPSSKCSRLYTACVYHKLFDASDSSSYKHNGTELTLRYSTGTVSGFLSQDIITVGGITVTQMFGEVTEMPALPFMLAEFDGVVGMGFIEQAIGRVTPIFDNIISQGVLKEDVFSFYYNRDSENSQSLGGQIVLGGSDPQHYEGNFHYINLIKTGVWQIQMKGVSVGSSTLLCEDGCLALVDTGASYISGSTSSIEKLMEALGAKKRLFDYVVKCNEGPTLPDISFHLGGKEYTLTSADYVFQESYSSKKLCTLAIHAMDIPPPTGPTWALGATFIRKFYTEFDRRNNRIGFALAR
Assay: In vitro human renin inhibition (renin activity in human plasma, angiotensin I radioimmunoassay)
Details: angiotensin I difference between halves incubated at 37° and 4° for 2 h, linear regression of at least three concentrations, read-out: IC₅₀

compound	IC50, nM
CC(C)C[C@H](NC(=O)[C@H](Cc1ccccc1)NC(=O)CCN1C(=O)CCSc2ccccc21)C(=O)N[C@@H](CC1CCCCC1)[C@@H](O)CC(=O)NCCCn1ccnc1 [Example E18]	8
CC(C)CNC(=O)C[C@H](O)[C@H](CC1CCCCC1)NC(=O)[C@H](CC(C)C)NC(=O)[C@H](Cc1ccccc1)NC(=O)CCN1C(=O)CS(=O)(=O)c2ccccc21 [Example E7]	13
Cc1ccc2c(c1)N(CC(=O)N[C@@H](Cc1ccccc1)C(=O)N[C@@H](CC(C)C)C(=O)N[C@@H](CC1CCCCC1)[C@@H](O)CC(=O)NCC(C)C)C(=O)CO2 [Example E2]	220
CC(C)CNC(=O)C[C@H](O)[C@H](CC1CCCCC1)NC(=O)[C@H](CC(C)C)NC(=O)[C@H](Cc1ccccc1)NC(=O)CC1CCOc2ccccc21 (stereo partly shown) [Example E1]	47
CC(C)C[C@H](NC(=O)[C@H](Cc1ccccc1)NC(=O)CCN1C(=O)COc2ccc(C(=O)O)cc21)C(=O)N[C@@H](CC1CCCCC1)[C@@H](O)CC(=O)NCCCn1ccnc1 [Example E15]	42
CC(C)C[C@H](NC(=O)[C@H](Cc1ccccc1)NC(=O)CCN1C(=O)CCS(=O)(=O)c2ccccc21)C(=O)N[C@@H](CC1CCCCC1)[C@@H](O)CC(=O)NCCCn1ccnc1 [Example E19]	22
CC(C)C[C@H](NC(=O)[C@H](Cc1ccccc1)NC(=O)CCN1C(=O)COc2ccc(CN)cc21)C(=O)N[C@@H](CC1CCCCC1)[C@@H](O)CC(=O)NCCCn1ccnc1 [Example E11]	25
